# Tgt: Beta-2 adrenergic receptor (Homo sapiens) (UniProt P07550)
# Sequence (P07550 whole entry, looked up): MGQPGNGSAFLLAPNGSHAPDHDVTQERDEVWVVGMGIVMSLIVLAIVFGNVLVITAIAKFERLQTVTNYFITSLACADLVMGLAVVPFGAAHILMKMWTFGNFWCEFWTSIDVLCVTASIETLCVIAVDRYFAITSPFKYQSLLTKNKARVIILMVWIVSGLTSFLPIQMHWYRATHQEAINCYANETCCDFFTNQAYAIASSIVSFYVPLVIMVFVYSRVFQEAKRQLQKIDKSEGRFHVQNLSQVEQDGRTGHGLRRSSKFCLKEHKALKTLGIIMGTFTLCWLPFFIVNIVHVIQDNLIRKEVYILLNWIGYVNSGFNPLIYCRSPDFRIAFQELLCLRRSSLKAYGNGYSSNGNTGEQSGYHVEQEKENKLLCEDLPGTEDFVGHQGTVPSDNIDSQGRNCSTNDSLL
# Settings: Compound concentration 10 µM
# Description: PDSP Primary Binding target: ADRB2 - Compounds are tested at 10 uM concentration, plate are incubated at room temperature in the dark for 90 minutes. Reaction are stopped by vacuum filtration onto 0.3% polyethyleneimine soaked filter mats using Filtermate harvester. Scintilation cocktail is then melted onto microwave-dried filters on a hot plate and the radio activity is counted in Microbia counter.
Measured parameter: inhibition (%)
The reply should contain only the number, in %.

Exercise: Check the records and state inhibition for C[C@@H](NCCc1ccc(O)cc1)[C@@H](O)c1ccc(O)cc1 (relative stereo)
Solution: 36.5

###

# Tgt: Mu-type opioid receptor (Homo sapiens) (UniProt P35372)
# Sequence (P35372 whole entry): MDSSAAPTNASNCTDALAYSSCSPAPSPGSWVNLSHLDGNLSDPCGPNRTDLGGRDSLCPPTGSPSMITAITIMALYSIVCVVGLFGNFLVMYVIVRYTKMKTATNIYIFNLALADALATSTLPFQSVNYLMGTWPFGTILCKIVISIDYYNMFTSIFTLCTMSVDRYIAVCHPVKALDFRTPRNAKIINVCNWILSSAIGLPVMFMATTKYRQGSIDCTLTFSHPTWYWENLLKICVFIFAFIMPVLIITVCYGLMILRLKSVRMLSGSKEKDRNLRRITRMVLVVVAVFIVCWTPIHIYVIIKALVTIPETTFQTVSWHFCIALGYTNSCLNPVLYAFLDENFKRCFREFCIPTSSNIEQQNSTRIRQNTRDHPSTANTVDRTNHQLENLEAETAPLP
# Settings: Compound concentration 10 µM
# Description: PDSP Primary Binding target: OPRM1 - Compounds are tested at 10 uM concentration, plate are incubated at room temperature in the dark for 90 minutes. Reaction are stopped by vacuum filtration onto 0.3% polyethyleneimine soaked filter mats using Filtermate harvester. Scintilation cocktail is then melted onto microwave-dried filters on a hot plate and the radio activity is counted in Microbia counter.
# label = true if inhibition >= 20% else false

# count of solved cases: 10
{"columns": ["Compound", "Tgt", "Qualitative label"],
 "data": [
  ["CCOC(=O)c1c(C)[nH]c2ccc3c(c12)CN1CCc2cc(OC)ccc2C1O3 (stereo unspecified)", "Mu-type opioid receptor (Homo sapiens) (UniProt P35372)", "true"],
  ["C[C@@H](NCCc1ccc(O)cc1)[C@@H](O)c1ccc(O)cc1 (relative stereo)", "Mu-type opioid receptor (Homo sapiens) (UniProt P35372)", "true"],
  ["N=C(N)SCCc1c[nH]cn1", "Mu-type opioid receptor (Homo sapiens) (UniProt P35372)", "false"],
  ["N#Cc1cccc(C(=O)Nc2cc(-c3ccccc3)nn2-c2ccccc2)c1", "Mu-type opioid receptor (Homo sapiens) (UniProt P35372)", "false"],
  ["Cc1ccccc1N1CCN(S(=O)(=O)C[C@]23CC[C@H](C[C@@H]2NC(=O)[C@@H](N)CCS(C)(=O)=O)C3(C)C)CC1", "Mu-type opioid receptor (Homo sapiens) (UniProt P35372)", "false"],
  ["CC(C)NCC(O)COc1cccc2ccccc12 (stereo unspecified)", "Mu-type opioid receptor (Homo sapiens) (UniProt P35372)", "false"],
  ["CCCCCCCCCCCCCCCCOC[C@H](COP(=O)([O-])OCC[N+](C)(C)C)OC(C)=O", "Mu-type opioid receptor (Homo sapiens) (UniProt P35372)", "true"],
  ["CC(C)C[C@H](NC(=O)N1CCCCCC1)C(=O)N[C@H](Cc1cn(C)c2ccccc12)C(=O)N[C@H](Cc1ccccn1)C(=O)O", "Mu-type opioid receptor (Homo sapiens) (UniProt P35372)", "false"],
  ["CC(C)NCC(O)COc1ccc(CCOCC2CC2)cc1 (stereo unspecified)", "Mu-type opioid receptor (Homo sapiens) (UniProt P35372)", "false"],
  ["CN1CCC(=C2c3ccccc3CC(=O)c3sccc32)CC1", "Mu-type opioid receptor (Homo sapiens) (UniProt P35372)", "false"]
]}

Now examine the next entry.
Exercise: Given the entry CCCCN(CCCC)C(=O)CN1C[C@@H](c2ccc3c(c2)OCO3)[C@H](C(=O)O)[C@H]1c1ccc(OC)cc1 , answer whether its inhibition meets or surpasses 20%.
Solution: false
